Data credit: patent US20250049800A1

- test_name: Phase I study: plasma pharmacokinetics of orally administered Compound 1
- Type: in vivo, human
- assay_setup: human, plasma, oral, 275 mg, 275 mg QD, Day 1, Mean
readout_name: Tmax (h)

> print(dat)
                               smiles.input  result.units  result.number
1  Cc1cc2c(C(N)=O)cccc2n1-c1nc2c(c(NCc3ccccc3)n1)CCCN2             h           2.57

---

- test_name: Phase I study: plasma pharmacokinetics of orally administered Compound 1
- Assay type: in vivo, human
- assay_setup: human, plasma, oral, 900 mg, 900 mg QD, Day 1, Mean
readout_name: half-life (h)

> print(dat)
                               smiles.input  result.number
1  Cc1cc2c(C(N)=O)cccc2n1-c1nc2c(c(NCc3ccccc3)n1)CCCN2           5.71

---

- test_name: Phase I study: plasma pharmacokinetics of orally administered Compound 1
- Format: in vivo, human
- assay_setup: human, plasma, oral, 350 mg, 350 mg BID, Day 1, Mean
readout_name: Tmax (h)

> print(dat)
                               smiles.input  result.number
1  Cc1cc2c(C(N)=O)cccc2n1-c1nc2c(c(NCc3ccccc3)n1)CCCN2           7.63

---

- test_name: Phase I study: plasma pharmacokinetics of orally administered Compound 1
- Assay type: in vivo, human
- assay_setup: human, plasma, oral, 450 mg, 450 mg QD, Day 4, Mean
readout_name: Tmax

> print(dat)
                               smiles.input  result
1  Cc1cc2c(C(N)=O)cccc2n1-c1nc2c(c(NCc3ccccc3)n1)CCCN2     4 h

---

- System: HL-60 cell line
- test_name: Cell Titer-Glo viability, fixed agent + dose response agent combinations
- Format: cell-based, human
- assay_setup: Homo sapiens, HL-60, HL-60; fixed agent Venetoclax + Azacitidine - 85 nM; read-out: IC50
pIC50: −log10 of the molar value.
readout_name: pIC50

> print(dat)
                               smiles.input  readout.name  result.number
1  Cc1cc2c(C(N)=O)cccc2n1-c1nc2c(c(NCc3ccccc3)n1)CCCN2         pIC50           6.59

---

- test_name: Phase I study: plasma pharmacokinetics of orally administered Compound 1
- Assay type: in vivo, human
- assay_setup: human, plasma, oral, 350 mg, 350 mg QD, Day 4, Mean
readout_name: Tmax (h)

> print(dat)
                               smiles.input  result.number
1  Cc1cc2c(C(N)=O)cccc2n1-c1nc2c(c(NCc3ccccc3)n1)CCCN2              4

---

- test_name: Phase I study: plasma pharmacokinetics of orally administered Compound 1
- Type: in vivo, human
- assay_setup: human, plasma, oral, 275 mg, 275 mg QD, Day 1, Mean
readout_name: half-life (h)

> print(dat)
                                   molecule  result.units  result.number
1  Cc1cc2c(C(N)=O)cccc2n1-c1nc2c(c(NCc3ccccc3)n1)CCCN2 [Compound 1]             h           5.08

---

- System: MV4; 11 cell line
- test_name: Cell Titer-Glo viability, fixed agent + dose response agent combinations
- Format: cell-based, human
- assay_setup: Homo sapiens, MV4-11, MV4; 11; fixed agent Compound 1 - 185 nM; read-out: IC50
readout_name: IC50 (nM)

> print(dat)
                                   compound  readout.name  result.units  result.number
1  Nc1ncn([C@@H]2O[C@H](CO)[C@@H](O)[C@H]2O)c(=O)n1 [Azacitidine, azacitidine, reference compound]          IC50            nM            110

---

- test_name: Phase I study: plasma pharmacokinetics of orally administered Compound 1
- Assay type: in vivo, human
- assay_setup: human, plasma, oral, 600 mg, 600 mg QD, Day 4, Mean
- Protocol: The study was designed as a multicenter, open-label Phase 1 study of orally administered Compound 1 in participants with R/R AML or participants with R/R intermediate- to high-risk MDS. […] Subjects were treated with Compound 1 QD or BID dosing as described in Example 2 and blood samples were taken from subjects and analyzed as described in Example 3. […]
readout_name: half-life (h)

> print(dat)
                                   compound  result.number
1  Cc1cc2c(C(N)=O)cccc2n1-c1nc2c(c(NCc3ccccc3)n1)CCCN2 [Compound 1]           9.77

---

- test_name: Phase I study: plasma pharmacokinetics of orally administered Compound 1
- Format: in vivo, human
- assay_setup: human, plasma, oral, 300 mg, 300 mg BID, Day 4, 1 subject
readout_name: Tmax (h)

> print(dat)
                                   molecule  result.units  result.number
1  Cc1cc2c(C(N)=O)cccc2n1-c1nc2c(c(NCc3ccccc3)n1)CCCN2 [Compound 1]             h              3

---

- test_name: Phase I study: plasma pharmacokinetics of orally administered Compound 1
- Format: in vivo, human
- assay_setup: human, plasma, oral, 750 mg, 750 mg QD, Day 1, Mean
readout_name: Tmax (h)

> print(dat)
                               smiles.input  result.units  result.number
1  Cc1cc2c(C(N)=O)cccc2n1-c1nc2c(c(NCc3ccccc3)n1)CCCN2             h           3.33

---

- test_name: Phase I study: plasma pharmacokinetics of orally administered Compound 1
- Format: in vivo, human
- assay_setup: human, plasma, oral, 100 mg, 100 mg QD, Day 4, Mean
readout_name: half-life (h)

> print(dat)
                               smiles.input  result.number
1  Cc1cc2c(C(N)=O)cccc2n1-c1nc2c(c(NCc3ccccc3)n1)CCCN2           7.84

---

- test_name: Phase I study: plasma pharmacokinetics of orally administered Compound 1
- Assay type: in vivo, human
- assay_setup: human, plasma, oral, 350 mg, 350 mg QD, Day 1, Mean
readout_name: Tmax (h)

> print(dat)
                               smiles.input  readout.name  result.number
1  Cc1cc2c(C(N)=O)cccc2n1-c1nc2c(c(NCc3ccccc3)n1)CCCN2          Tmax            3.2

---

- Test system: MV4; 11 cell line
- test_name: Cell Titer-Glo viability, fixed agent + dose response agent combinations
- Format: cell-based, human
- assay_setup: Homo sapiens, MV4-11, MV4; 11; fixed agent Azacitidine - 500 nM; read-out: IC50
readout_name: IC50 (nM)

> print(dat)
                               smiles.input   target.or.system  readout.name  result.number
1  Cc1cc2c(C(N)=O)cccc2n1-c1nc2c(c(NCc3ccccc3)n1)CCCN2  MV4; 11 cell line          IC50            114

---

- test_name: Phase I study: plasma pharmacokinetics of orally administered Compound 1
- Assay type: in vivo, human
- assay_setup: human, plasma, oral, 175 mg, 175 mg QD, Day 1, Mean
readout_name: Tmax (h)

> print(dat)
                               smiles.input  result.number
1  Cc1cc2c(C(N)=O)cccc2n1-c1nc2c(c(NCc3ccccc3)n1)CCCN2           3.33

---

- test_name: Phase I study: plasma pharmacokinetics of orally administered Compound 1
- Format: in vivo, human
- assay_setup: human, plasma, oral, 450 mg, 450 mg QD, Day 1, Mean
readout_name: half-life (h)

> print(dat)
                               smiles.input  readout.name  result.number
1  Cc1cc2c(C(N)=O)cccc2n1-c1nc2c(c(NCc3ccccc3)n1)CCCN2     half-life           6.05

---

- test_name: Phase I study: plasma pharmacokinetics of orally administered Compound 1
- Assay type: in vivo, human
- assay_setup: human, plasma, oral, 100 mg, 100 mg QD, Day 4, Mean
readout_name: Tmax (h)

> print(dat)
                               smiles.input  readout.name  result.number
1  Cc1cc2c(C(N)=O)cccc2n1-c1nc2c(c(NCc3ccccc3)n1)CCCN2          Tmax           2.67

---

- test_name: Phase I study: plasma pharmacokinetics of orally administered Compound 1
- Assay type: in vivo, human
- assay_setup: human, plasma, oral, 900 mg, 900 mg QD, Day 4, Mean
- Experimental: The study was designed as a multicenter, open-label Phase 1 study of orally administered Compound 1 in participants with R/R AML or participants with R/R intermediate- to high-risk MDS. […] Subjects were treated with Compound 1 QD or BID dosing as described in Example 2 and blood samples were taken from subjects and analyzed as described in Example 3. […]
readout_name: half-life (min)

> print(dat)
                               smiles.input  readout.name  result.units  result.number
1  Cc1cc2c(C(N)=O)cccc2n1-c1nc2c(c(NCc3ccccc3)n1)CCCN2     half-life           min            388
